- target_or_test_system: T1, 4H3015-AA
- T1 chain: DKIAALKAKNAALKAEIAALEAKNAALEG
- assay_procedure: two-hybrid library CCmax;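 further: natural log of median RNA to DNA barcode read ratio; higher means stronger binding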
- conditions: mean of both orientations
measurement_name: interaction score
Response field accepts a number only; no unit should be typed.

Recorded interaction score of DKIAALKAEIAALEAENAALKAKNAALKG [4H2592-AA] , please.
-1.39

Recorded interaction score of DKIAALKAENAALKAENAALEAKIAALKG [4H2774-AA] , please.
-1.48

Recorded interaction score of DKIAALKAKIAALKAKNAALEAENAALEG [4H2931-AA] , please.
-2.54

Recorded interaction score of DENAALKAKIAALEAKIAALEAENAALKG [4H1828-AA] , please.
-1.83

Recorded interaction score of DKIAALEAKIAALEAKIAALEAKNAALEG [4H2343-AA] , please.
-1.83

Recorded interaction score of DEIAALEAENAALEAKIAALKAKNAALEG [4H175-AA] , please.
2.21

Recorded interaction score of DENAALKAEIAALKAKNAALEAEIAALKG [4H1650-AA] , please.
-1.53
